Items are presented alongside their recorded cleaved RNA product abundance.
- Tested on: Bacillus subtilis
- assay name: cleaved RNA product abundance (RNA/gDNA barcode ratio) relative to median wild-type variant (ratio to wild type); higher = more accumulation of the downstream cleavage product
- experimental parameters: experiment (reporter, strain, medium): exp 4a: truncated aprE reporter, strain BJT201 with 2% xylose (RNase J1 expressed); cleavage site: cggR-gapA (positions -7 to +36 mutated)
// no unit, no text: just the number

ACAGACGAAGGAGCCGCATAGAAGTTATTAAGGGATGAATAATCCCTGAATATAAATATCTCTCACTTATTTAAA    0.679

Prompt line: May I ask what cleaved RNA product abundance has been recorded for ACAGACGAAGGAGCCGCAAACAAGTGATTAAGGGATGAATAATCCCTCAATATAAATATCTCTCACTTATTTAAA ?
Response line: 0.27

Prompt line: May I ask what cleaved RNA product abundance has been recorded for ACAGACGAAGGAGCCGCAAAGAAGTTATTAAGGGTTGAATAATCCCTCTATATAAATATCTCTCACTTATTTAAA ?
Response line: 0.151

Prompt line: May I ask what cleaved RNA product abundance has been recorded for ACAGACGAAGGAGCCGCAAAGAAGTTATTAAGGGAAGAATAATTCCTCAATATAAATATCTCTCACTTATTTAAA ?
Response line: 0.21

Prompt line: May I ask what cleaved RNA product abundance has been recorded for ACAGACGAAGGAGCCGCAAAGACGTTATTAAGAGATGAATAATCCCTCAATATAAATATCTCTCACTTATTTAAA ?
Response line: 0.116

* * *

Items are presented alongside their recorded cleaved RNA product abundance.
- System: Bacillus subtilis
- assay name: cleaved RNA product abundance (RNA/gDNA barcode ratio) relative to median wild-type variant (ratio to wild type); higher = more accumulation of the downstream cleavage product
- experimental parameters: experiment (reporter, strain, medium): exp 8a: truncated aprE reporter, strain BJT201 with 2% xylose (RNase J1 expressed); cleavage site: glnRA (positions -5 to +31 mutated)

Worked cases, answers included:
CGACATGTCCCGCTTCTTTCATTAATCCGTAAGCAACTGTTTTGCTATATACATATACCTTTTAAGAGGAGGAAT    0.551
CGACATGTCCCGCTTCTTTCATTAATCCGTTAGCAACTGTTTTGATATATATATTTACCTTTTAAGAGGAGGAAT    0.766

Prompt line: May I ask what cleaved RNA product abundance has been recorded for CGACATGTCCCGCTTCTTTCATTAATCCGTTAGCAACTGTTTTTCTATATACATTTTACCTTTTAAGAGGAGGAA ?
Response line: 0.435

Prompt line: May I ask what cleaved RNA product abundance has been recorded for CGACATGTCCCGCTTCTTTCATTAATCCGTTATCAAATGTTTTGCTATATACATTTACCTTTTAAGAGGAGGAAT ?
Response line: 0.283

Prompt line: May I ask what cleaved RNA product abundance has been recorded for CGACATGTCCCGCTTCTTTCATTAATCCGTTAGCAACTGTTTTACTATATAAATTTACCTTTTAAGAGGAGGAAT ?
Response line: 0.596

Prompt line: May I ask what cleaved RNA product abundance has been recorded for CGACATGTCCCGCTTCTTTCATTAATCCTTTAGCAACTGTTTTGCTATATACATTTACCTTTTAAGAGGAGGAAT ?
Response line: 0.612
